Reference for the values: patent US20080132539A1

# Tested on: Maillard reaction (lysozyme / fructose, dimer formation)
# method description: Maillard reaction-inhibiting effects (lysozyme dimer formation with fructose, SDS-PAGE densitometry)
# Assay type: biochemical
# condition parameters: test compound concentration 1 mM; 10 mg/mL lysozyme, 200 mM fructose, pH 7.4, 37° C., 4 days; dimer formation inhibition rate
As shown below, each of these molecules has a reported Maillard reaction-inhibiting activity (%) value.
property name: Maillard reaction-inhibiting activity (%)

molecule | target desc | quantitative readout
CCCCCn1c(CC[C@H](N)C(=O)NO)nc2cc(Cl)c(Cl)cc21 | Maillard reaction (lysozyme / fructose, dimer formation) | 104
CC(C)(C)c1ccc(Cn2cc(CC(N)C(=O)NO)c3ccccc32)cc1 (racemic) | Maillard reaction (lysozyme / fructose, dimer formation) | 97
CCCCCn1cc(C[C@@H](N)C(=O)NO)c2ccccc21 | Maillard reaction (lysozyme / fructose, dimer formation) | 101
CCCN(CCC)CCC[C@H](N)C(=O)NO | Maillard reaction (lysozyme / fructose, dimer formation) | 40
CC(C)(C)C(=O)Nc1ccc(C[C@H](N)C(=O)NO)cc1 | Maillard reaction (lysozyme / fructose, dimer formation) | 89
Cc1cc2nc(CC[C@H](N)C(=O)NO)n(Cc3ccc(C(C)(C)C)cc3)c2cc1C | Maillard reaction (lysozyme / fructose, dimer formation) | 98
CC(C)(C)c1ccc(Cn2c(CC[C@H](N)C(=O)NO)nc3ccccc32)cc1 | Maillard reaction (lysozyme / fructose, dimer formation) | 101
NC(N)=NCCC[C@H](N)C(=O)NO [Compound No. 111, arginine hydroxamate] | Maillard reaction (lysozyme / fructose, dimer formation) | 75
